Values compiled from PubChem BioAssay.

Assay: HUVEC growth inhibition – cell-based, human, primary screen (AID 575);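 note: 100% = median of untreated cell wells with 0.1% DMSO on each plate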
Conditions: HUVEC proliferation, CellTiter-Glo luminescence, 72 h; at 10 µM; hits give low values
Quick reference for viability among some compounds
# unit: % | format: bare number

Consider the following illustrative entries.
>>> recorded_result("CCCc1nn(CCc2ccccn2)c(N)c1CC")
89.4
>>> recorded_result("O=C(CSc1nnc2scc(-c3ccccc3)n12)N1CCN(Cc2ccccc2)CC1")
103
>>> recorded_result("Cc1ccc(Cn2c(SCC(C)C)nc3c2c(=O)n(C)c(=O)n3C)cc1")
62.2
>>> recorded_result("CCOc1nc(SCCOc2ccccc2)nc(N(C)C)n1")
72.4
>>> recorded_result("COc1ccc(N2C(=O)CC(NC3CC3)C2=O)cc1 (stereo unspecified)")
94.7

Please examine the following record next.
For the compound CCn1c(SCC(=O)Nc2nccs2)nnc1-c1ccncc1 , give its measured viability value. 87
